# Test system: RARg:RXRa (NR concentration 270 nM, RXRa partner concentration 90 nM)
# test_name: PBM binding z-score (relative to random genomic background probes); higher = stronger binding; sequences stand for … in GC…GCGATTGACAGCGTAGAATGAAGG
Assign class by PBM binding z-score: not lower than 1 means True; lower than 1 means False.

Use these answered entries as a reference point.
input_sequence=GGAACGAGGGCAAGTTGTTAGCAGAGTTTGATGG answer_label=True
input_sequence=TCATATAGGTAACACAGGTGAAAGTCGGCATCTA answer_label=True
input_sequence=TAGCCGAGGTCATGCGGGCCAGTATAGTGTCGGC answer_label=True
input_sequence=CTCGAAAGGTCGTGCTCAAGTGAGTATACCAAAC answer_label=True
input_sequence=CCTACTGGGCCGCGAAAGGTCATTGATTCAGTGA answer_label=True

query: Entry `CCGACTGGGGGAAGGTTACCATAACGCACAGCCA` : is its PBM binding z-score no less than 1?
result: True

query: # bool: PBM binding z-score of `AGTCAATGTTCATCTAGGTAACGTAAGATATGCT` >= 1
result: False

query: Hi team, for `GCTGCTAGGTCAGGTTGGTCAGCGAACGGGTACG` , is the recorded PBM binding z-score at or above 1?
result: True

query: Given the entry `CCTATTGGGCCATCAGGTCATTGATATCAACGTT` , answer whether its PBM binding z-score meets or surpasses 1.
result: True

query: Check if PBM binding z-score >= 1 (inclusive). Item: `CTAGCAAGGTGAACAAGGTCGTTGATTACTATTC`
result: True

query: Could you verify whether the entry `CGAACTCGGTCAGAACAGGACAGTGAAGGATGAT` shows PBM binding z-score of no less than 1?
result: True

query: Determine whether this sequence has PBM binding z-score no lower than 1: `CCTAGCAGGTCAGGGTCACTCAAGCATTTCGCTT`
result: True

query: Hello, I need to know if `TCTTGTAGATCAATAGAGGTTAAGAAGGTGCGCT` has measured PBM binding z-score not below 1. Thanks!
result: False

query: Say whether `TCTTGTAGATCAAGCAGGTTAGGAAAGCCTGAGT` shows PBM binding z-score of 1 or more.
result: False

====

# Tested on: PPARg:RXRa (NR concentration 180 nM, RXRa partner concentration 90 nM)
# test_name: PBM binding z-score (relative to random genomic background probes); higher = stronger binding; sequences stand for … in GC…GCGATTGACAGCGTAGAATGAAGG
measured_endpoint: PBM binding z-score
Please give the numeric answer without any surrounding text.

Worked set:
input_sequence=TCTCGGTGGACACGAAGGTCAGAGCTTTCCAGAG measured_endpoint="PBM binding z-score" quantitative_result=0.78
input_sequence=CAAACTAGGACAAAGGTCAAAGTCGAGCCAACCA measured_endpoint="PBM binding z-score" quantitative_result=12.1
input_sequence=GCAACGAGGGCAAAGTTGATAGCATCTGTCGACG measured_endpoint="PBM binding z-score" quantitative_result=5.92

query: Item: `TCATATAGGTAATACAGGTGAAAGCCGGCATCTA` Test system: PPARg:RXRa (NR concentration 180 nM, RXRa partner concentration 90 nM) Read-out: PBM binding z-score Value: ?
result: 1.68

query: Any idea what PBM binding z-score came out for `CTCGAAAGGTCGGTTGGGGTGAGTATACGGATAA` on PPARg:RXRa (NR concentration 180 nM, RXRa partner concentration 90 nM)?
result: 0.807

query: // lookup PBM binding z-score | system=PPARg:RXRa (NR concentration 180 nM, RXRa partner concentration 90 nM) | key= `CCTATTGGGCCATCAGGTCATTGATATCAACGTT`
result: 1.29

The measurements presented in this section are drawn from the supplement of paper PMC6555819.
